Just for reference, patent US9963462B2 is where these values come from.

The following compounds have recorded pIC50 on UniProt P35270.
Sequence (P35270 whole entry): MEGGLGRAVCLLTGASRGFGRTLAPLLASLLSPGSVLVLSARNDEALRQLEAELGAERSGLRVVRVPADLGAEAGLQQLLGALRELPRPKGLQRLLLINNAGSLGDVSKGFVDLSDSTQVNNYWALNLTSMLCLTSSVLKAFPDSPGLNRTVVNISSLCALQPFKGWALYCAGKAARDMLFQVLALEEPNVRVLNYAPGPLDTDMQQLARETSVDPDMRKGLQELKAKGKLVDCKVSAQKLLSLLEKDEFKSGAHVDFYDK
Numbers only, as −log10 of the molar value.

The examples below pair each entry with its known result.
COC(=O)c1cnn(-c2nn3c(F)ccc3c(=O)[nH]2)c1C1CC1; 9.00
Cc1c(C(=O)N2CCC2c2ccc(F)cn2)cnn1-c1nn2cccc2c(=O)[nH]1 (stereo not drawn); 8.00
Cc1c(C(=O)N2CCN(C(=O)C34CC(C(N)=O)(C3)C4)CC2)cnn1-c1nc2c(c(=O)[nH]1)CCC2; 8.05
Cc1c(C(=O)N2CC=C(C3(C#N)CC3)CC2)cnn1-c1nn2cccc2c(=O)[nH]1; 8.70
Cc1c(C(=O)N2CCC(C(F)(F)F)CC2)cnn1-c1nc2sccc2c(=O)[nH]1; 8.70

Your task in this section: give pIC50 for each listed record.
1. COC(=O)c1sccc1S(=O)(=O)N1CCN(C(=O)c2cnn(-c3nn4cccc4c(=O)[nH]3)c2C)CC1
2. Cc1c(C(=O)N2CCN(C3CC(F)(F)C3)CC2)nnn1-c1nn2cccc2c(=O)[nH]1
3. Cc1c(C(=O)N2CC[C@H](C)C[C@@H]2C(F)(F)F)cnn1-c1nc2c(c(=O)[nH]1)CCC2 (racemic)
4. Cc1c(C(=O)N2CCN(S(=O)(=O)c3ccc(Cl)c(Cl)c3)CC2)cnn1-c1nn2cccc2c(=O)[nH]1
5. Cc1c(C(=O)N2CCC(c3nc4ccccc4s3)CC2)cnn1-c1nc2ccsc2c(=O)[nH]1
6. Cc1c(C(=O)NC2CC(F)(F)C2)cnn1-c1nn2cccc2c(=O)[nH]1
7. Cc1c(C(=O)N2CCOCC2)cnn1-c1nc2ccccc2c(=O)[nH]1

Completion:
1: 9.00; 2: 9.00; 3: 8.05; 4: 8.70; 5: 8.15; 6: 8.05; 7: 5.89

Your task in this section: give pIC50 for each listed record.
1. Cc1c(C(=O)N2CCC(c3nc4ccccc4s3)CC2)ccnc1-c1nc2ccsc2c(=O)[nH]1
2. Cc1c(C(=O)N2CCN(c3ncc(-c4ccc(F)cc4)o3)CC2)cnn1-c1nn2cccc2c(=O)[nH]1
3. Cc1c(C(=O)N2CCN(C(=O)OCc3ccccc3)C(C)C2)cnn1-c1nc2c(c(=O)[nH]1)CCC2 (stereo not drawn)
4. Cc1cc(=O)[nH]c(-n2ncc(C(=O)N3Cc4ccccc4C3)c2C)n1

Completion:
1: 6.70; 2: 8.30; 3: 8.00; 4: 8.05

Your task in this section: give pIC50 for each listed record.
1. Cc1nn(-c2nn3cccc3c(=O)[nH]2)cc1C(=O)N1CC2(C1)CC(F)(F)C2
2. Cc1c(C(=O)N2C[C@@H]3CCN(C(=O)OC(C)(C)C)C[C@@H]32)cnn1-c1nn2cccc2c(=O)[nH]1
3. Cc1cc(-n2ncc(C(=O)N3CCC(C(F)(F)F)CC3)c2C)[nH]c(=O)n1
4. Cc1c(C(=O)N2CCN(c3nc(-c4ccnc(Cl)c4)cs3)CC2)cnn1-c1nn2cccc2c(=O)[nH]1

Completion:
8.70
8.15
6.52
8.70

Your task in this section: give pIC50 for each listed record.
1. O=C(c1cnn(-c2nc3c(c(=O)[nH]2)COC3)c1)N1CCC(C(F)(F)F)CC1
2. Cc1c(C(=O)N2CCC(C(CO)C(F)(F)F)CC2)cnn1-c1nn2cccc2c(=O)[nH]1 (stereo not drawn)
3. O=C(c1cnn(-c2nn3cccc3c(=O)[nH]2)c1)N1CCC(OCC(F)(F)F)CC1

Completion:
[8.22, 9.00, 8.70]
